Test system: Escherichia coli TOP10
Procedure summary: shrunken log2 fold change of peptide-encoding DNA abundance (4.5 h post-induction vs induction); higher = less antimicrobial activity (less host growth inhibition)
Measurement parameters: time post-induction: 4.5 h; library: site-saturation at positions 5, 18, 19, 20
Label Fulfilled when shrunken log2 fold change is at or above 0.3; otherwise label Not fulfilled.

- RRIRCRPPRLPRPRPRPQITPRP: Not fulfilled
- RRIRWRPPRLPRPRPRPVQEPRP: Fulfilled
- RRIRERPPRLPRPRPRPVMAPRP: Not fulfilled
- RRIRCRPPRLPRPRPRPAKRPRP: Not fulfilled

Please examine the following record next.
Is shrunken log2 fold change for RRIRWRPPRLPRPRPRPRPPPRP at or above 0.3?
Fulfilled

* * *

System: Escherichia coli TOP10
Procedure summary: shrunken log2 fold change of peptide-encoding DNA abundance (4.5 h post-induction vs induction); higher = less antimicrobial activity (less host growth inhibition)
Measurement parameters: time post-induction: 4.5 h; library: site-saturation at positions 5, 18, 19, 20
Measurement label: shrunken log2 fold change
Just the number, please.

// known answers, use as guide
* RRIRWRPPRLPRPRPRPCDRPRP | -0.0349
* RRIRDRPPRLPRPRPRPRTGPRP | 0.0132

Any idea what shrunken log2 fold change was measured for RRIRLRPPRLPRPRPRPGEVPRP ?
0.117

Any idea what shrunken log2 fold change was measured for RRIRQRPPRLPRPRPRPPGTPRP ?
0.617

Any idea what shrunken log2 fold change was measured for RRIRERPPRLPRPRPRPFNIPRP ?
-0.0814

Any idea what shrunken log2 fold change was measured for RRIRPRPPRLPRPRPRPTPSPRP ?
0.312

Any idea what shrunken log2 fold change was measured for RRIRYRPPRLPRPRPRPREKPRP ?
0.124

Any idea what shrunken log2 fold change was measured for RRIRERPPRLPRPRPRPRDAPRP ?
0.446

Any idea what shrunken log2 fold change was measured for RRIRERPPRLPRPRPRPWPLPRP ?
0.0261

Any idea what shrunken log2 fold change was measured for RRIRFRPPRLPRPRPRPRFHPRP ?
-0.409

Any idea what shrunken log2 fold change was measured for RRIRARPPRLPRPRPRPHTDPRP ?
-0.111

Any idea what shrunken log2 fold change was measured for RRIRERPPRLPRPRPRPTLCPRP ?
0.259

Any idea what shrunken log2 fold change was measured for RRIRPRPPRLPRPRPRPHKIPRP ?
-0.193

Any idea what shrunken log2 fold change was measured for RRIRIRPPRLPRPRPRPINQPRP ?
-0.345

* * *

System: Escherichia coli TOP10;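 also: peptides expressed intracellularly from a pBAD plasmid library in pooled LB shake-flask culture, induced with 0.3% L-arabinose, DNA abundance read by NGS, three biological replicates, DESeq2 with apeglm shrinkage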
Procedure summary: shrunken log2 fold change of peptide-encoding DNA abundance (4.5 h post-induction vs induction); higher = less antimicrobial activity (less host growth inhibition)
Measurement parameters: time post-induction: 4.5 h; library: site-saturation at positions 5, 18, 19, 20
Label 1.0 when shrunken log2 fold change is at or above -0.03; otherwise label 0.0.

These solved cases illustrate the format of a correct answer.
• RRIRDRPPRLPRPRPRPVAIPRP = 1.0
• RRIRYRPPRLPRPRPRPQCFPRP = 1.0
• RRIRMRPPRLPRPRPRPQTLPRP = 1.0

Is shrunken log2 fold change for RRIRIRPPRLPRPRPRPEGRPRP at or above -0.03?
0.0

Is shrunken log2 fold change for RRIRHRPPRLPRPRPRPQLGPRP at or above -0.03?
1.0

Is shrunken log2 fold change for RRIRSRPPRLPRPRPRPMHKPRP at or above -0.03?
0.0

Is shrunken log2 fold change for RRIRARPPRLPRPRPRPIQLPRP at or above -0.03?
0.0

Is shrunken log2 fold change for RRIRLRPPRLPRPRPRPRSDPRP at or above -0.03?
1.0

Is shrunken log2 fold change for RRIRMRPPRLPRPRPRPIGSPRP at or above -0.03?
1.0

Is shrunken log2 fold change for RRIRKRPPRLPRPRPRPGRHPRP at or above -0.03?
1.0

Is shrunken log2 fold change for RRIRTRPPRLPRPRPRPDDHPRP at or above -0.03?
1.0

Is shrunken log2 fold change for RRIRQRPPRLPRPRPRPQCEPRP at or above -0.03?
0.0

Is shrunken log2 fold change for RRIRPRPPRLPRPRPRPWGPPRP at or above -0.03?
1.0

Value source: the supplement of paper PMC9112550
